# method: AUClast in Wistar rat plasma at 5 mg/kg, po measured upto 48 hrs
# Assay type: ADME, organism-based
value kind: AUC(0-t) at 48 h (ng·h/mL)

COc1cc([Se]C(F)(F)F)c(OC)cc1CCN.Cl = 40.3

---

# method: CSF to plasma ratio in male Sprague-Dawley rat at 1 mg/kg, iv measured upto 8 hrs by LC-MS/MS analysis
# Format: ADME, organism-based
# experimental setup: CSF and plasma
value kind: Kp at 8 h

COc1cc([Se]C(F)(F)F)c(OC)cc1CCN.Cl = 0.2

---

# assay system: Alpha-2A adrenergic receptor (Homo sapiens, UniProt P08913)
# Sequence (P08913 whole entry): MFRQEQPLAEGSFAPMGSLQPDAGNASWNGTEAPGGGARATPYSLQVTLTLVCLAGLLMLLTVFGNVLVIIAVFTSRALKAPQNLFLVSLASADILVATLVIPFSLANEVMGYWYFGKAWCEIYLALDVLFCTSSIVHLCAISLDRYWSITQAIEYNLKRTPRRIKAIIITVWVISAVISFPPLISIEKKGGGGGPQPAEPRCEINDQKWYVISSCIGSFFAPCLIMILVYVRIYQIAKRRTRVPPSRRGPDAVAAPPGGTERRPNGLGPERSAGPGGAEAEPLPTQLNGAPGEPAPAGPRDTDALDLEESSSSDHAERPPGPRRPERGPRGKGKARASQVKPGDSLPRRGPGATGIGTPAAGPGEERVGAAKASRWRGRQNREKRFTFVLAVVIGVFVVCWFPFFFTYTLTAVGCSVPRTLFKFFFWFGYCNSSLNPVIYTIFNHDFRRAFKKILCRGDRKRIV
# method: Displacement of [3H]-rauwolscine from human recombinant adrenergic alpha-2A receptor expressed in CHO-K1 cells incubated for 60 mins by […] analysis relative to control
pKi: −log10 of the molar value.
value kind: pKi

COc1cc([Se]C(F)(F)F)c(OC)cc1CCN.Cl = 7.14
